# credit: patent US7056679

- SYSTEM: T1, DGI-2 (UniProt Q15004 1-111, limits assumed)
- T1 construct: Soluble recombinant DGI-2 made by in vitro translation (RTS, pIVEX2.3-MCS vector) and coated on plates for the ELISA; vector tag not described; also called KIAA0101; DGI-2 polypeptide
- T1 sequence (looked up): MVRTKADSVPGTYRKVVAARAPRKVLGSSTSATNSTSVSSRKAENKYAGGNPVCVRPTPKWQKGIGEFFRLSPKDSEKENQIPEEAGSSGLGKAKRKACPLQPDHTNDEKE
- RUN DESCRIPTION: phage ELISA, coated DGI-2
No end group written: not given here.
MEASURED ENDPOINT: binding result

// known answers, use as guide
MGADTCMGGKMPFDQMFGAV (on M13 phage, pIII fusion with E-tag) [DGI-2-20F-PP-E10] :: binds
GLRACDTYLGFCVGARRIDD (on M13 phage, pIII fusion with E-tag) [DGI-2-20F-3-B102] :: binds
RDTTSQWSWISRGWEFPGWR (on M13 phage, pIII fusion with E-tag) [DGI-2-20R-3-C2] :: binds
VTGTRFRGFAVACVRMGTWH (on M13 phage, pIII fusion with E-tag) [DGI-2-20F-PP-F2] :: binds
PVYRVAMCRISVGCSAGAWF (not fully specified; cysteine pairing not given here, on M13 phage, pIII fusion with E-tag) [DGI-2-20F-PP-C12] :: binds
DRSRAPLCADKSGRWQRYRR (on M13 phage, pIII fusion with E-tag) [DGI-2-20F-PP-C10] :: binds
RGSLLLTLPRLSGAVGTAYG (on M13 phage, pIII fusion with E-tag) [DGI-2-20F-PP-B3] :: binds
LFSATGCALMSGFCLGSDGS (not fully specified; cysteine pairing not given here, on M13 phage, pIII fusion with E-tag) [DGI-2-20R-3-C1] :: binds

Next:
Query :: Endpoint output: binding result of CRNFGVIWGAGWVSPGCEDI (not fully specified, on M13 phage, pIII fusion with E-tag) [DGI-2-20E-3-A1] . Value?
Result :: binds
